biological target: Kv7.2 (Homo sapiens, UniProt O43526); assay: Activation of Kv7.2 (in vitro assay, concentration response curve); settings: activation of Kv7.2
ATTRIBUTE MEASURED: pEC50
Note: pEC50 values are expressed as the negative base-10 logarithm of concentration in M.

(Q) Input `O=C(Nc1cccc(Cl)c1)N[C@@H](CO)c1ccnc(OCC(F)(F)F)c1` , output reported pEC50.
(A) 7.10

(Q) Input `O=C(NCc1ccnc(OC(F)F)c1)N[C@H]1CC[C@H](F)C1` , output reported pEC50.
(A) 6.36

(Q) Input CC(F)(F)c1cc(CNC(=O)N[C@H]2C[C@@H]3CC[C@H]2C3)ccn1 (racemic) , output reported pEC50.
(A) 6.59

(Q) Input `O=C(NCc1ccnc(OCC(F)(F)F)c1)N[C@H]1C[C@@H](F)C1` , output reported pEC50.
(A) 6.46

---

target: Kv7.2 (Homo sapiens, UniProt O43526); test: Activation of Kv7.2 (in vitro assay, concentration response curve); conditions: activation of Kv7.2
ATTRIBUTE MEASURED: pEC50
Note: pEC50 values are expressed as the negative base-10 logarithm of concentration in M.

(Q) GET pEC50 where system = Kv7.2 (Homo sapiens, UniProt O43526) and item = O=C(NCc1cc(OC(F)F)ncn1)N[C@H]1C[C@H](C(F)(F)F)C1 [Example 282]
(A) 7.05

(Q) GET pEC50 where system = Kv7.2 (Homo sapiens, UniProt O43526) and item = O=C(Nc1cccc(Cl)c1)NC(CO)c1ccnc(OC(F)F)c1 (single isomer, unassigned) [Example 263]
(A) 6.51

(Q) GET pEC50 where system = Kv7.2 (Homo sapiens, UniProt O43526) and item = O=C(Nc1cccc(CF)c1)NC(CO)c1ccnc(OCC(F)(F)F)c1 (stereo not shown) [Example 232]
(A) 6.60

(Q) GET pEC50 where system = Kv7.2 (Homo sapiens, UniProt O43526) and item = Cc1cc(NC(=O)NC(CO)c2ccnc(OCC(F)(F)F)c2)ccc1F (stereo not shown) [Example 205]
(A) 6.62

---

Molecular target: UniProt:O43526
Experiment: Activation of Kv7.2 (in vitro assay, concentration response curve)
Conditions: activation of Kv7.2
Method: The term “EC50” in this application is defined as: the agonistic effect of a compound can be determined by testing the compound in an in vitro assay as described herein, whereby the effect of the compound is measured across a range of compound concentrations. The resulting data is plotted as a concentration response curve, which typically follows a sigmoidal function, whereby the concentration of the compound is plotted on the x axis and the response (agonistic effect) is plotted on the y axis. […]
ATTRIBUTE MEASURED: EC50 (nM)
Express it in nM; write the number only.

(Q) Input `O=C(NCc1ccnc(OC(F)F)c1)Nc1cccc(OC(F)F)c1` , output reported EC50.
(A) 3510

(Q) Input `O=C(NCc1ccnc(OC(F)F)c1)NCC1(C(F)(F)F)CCC1` , output reported EC50.
(A) 160

(Q) Input Cc1cccc(NC(=O)NC(CO)c2ccnc(OC(F)F)c2)c1 (centres unmarked) , output reported EC50.
(A) 250

(Q) Input O=C(NCc1ccnc(OC(F)F)c1)NC1COC(C(F)(F)F)C1 (centres unmarked) , output reported EC50.
(A) 500

(Q) Input `COc1cccc(NC(=O)NCc2ccnc(OC(F)F)c2)c1` , output reported EC50.
(A) 2470

---

target: Kv7.2 (Homo sapiens, UniProt O43526); assay: Activation of Kv7.2 (in vitro assay, concentration response curve); details: activation of Kv7.2
ATTRIBUTE MEASURED: EC50 (nM)
Express it in nM; write the number only.

(Q) Input O=C(Nc1cccc(Cl)c1)NC(CO)c1ccnc(OCC(F)F)c1 (stereo not drawn) , output reported EC50.
(A) 240

(Q) Input O=C(NCc1ccnc(-n2cccn2)c1)N[C@@H]1C[C@H]2CC[C@@H]1C2 [Example 16] , output reported EC50.
(A) 390

(Q) Input COCC(Oc1cc(CNC(=O)N[C@H]2C[C@H](C(F)(F)F)C2)ccn1)C(F)(F)F (stereo partly drawn) , output reported EC50.
(A) 200

(Q) Input `CC1(NC(=O)NCc2ccnc(OC(F)F)c2)CCC(F)(F)CC1` , output reported EC50.
(A) 1050

(Q) Input O=C(NCc1ccnc(OC(F)F)c1)NC1CC(C2CC2)C1 (stereo not drawn) , output reported EC50.
(A) 90

(Q) Input `CC(F)(F)c1cc(CNC(=O)N[C@H]2C[C@H](C(F)(F)F)C2)ccn1` , output reported EC50.
(A) 610

(Q) Input `CC(F)(F)COc1cc(CNC(=O)N[C@H]2C[C@H](C(F)(F)F)C2)ccn1` , output reported EC50.
(A) 120

(Q) Input `O=C(NCc1ccnc(OC(F)F)c1)N[C@@H]1CCCC(F)(F)C1` , output reported EC50.
(A) 240

(Q) Input O=C(NCc1ccnc(OC(F)F)c1)NCC1CC(F)C1 (stereo not drawn) , output reported EC50.
(A) 1040

---

Give Emax for every item shown.
Molecular target: Kv7.2 (Homo sapiens)
Construct: expressed in transfected cells
Test: Activation of Kv7.2 (in vitro assay, concentration response curve)
Format: cell-based
Conditions: Kv7.2 activation max %
Description: The term “EC50” in this application is defined as: the agonistic effect of a compound can be determined by testing the compound in an in vitro assay as described herein, whereby the effect of the compound is measured across a range of compound concentrations. The resulting data is plotted as a concentration response curve, which typically follows a sigmoidal function, whereby the concentration of the compound is plotted on the x axis and the response (agonistic effect) is plotted on the y axis. […]
The number alone won't do; follow it with the unit.

(Q) Input O=C(NCc1ccnc(OC(F)F)c1)Nc1ccc(F)c(F)c1F [Example 272] , output reported Emax.
(A) 44%

(Q) Input O=C(NCc1ccnc(OC(F)F)c1)N[C@@H](C1CCC1)C(F)(F)F [Example 242] , output reported Emax.
(A) 51%

(Q) Input O=C(NCc1ccnc(OC(F)F)c1)N[C@H]1[C@@H]2CCC(F)(F)[C@@H]21 [Example 174] , output reported Emax.
(A) 51%

(Q) Input O=C(NCc1ccnc(OC(F)F)c1)NC1C[C@@H](F)[C@@H](F)C1 (mixture of isomers) [Example 234] , output reported Emax.
(A) 56%

---

molecular target: Kv7.2 (Homo sapiens, UniProt O43526); construct: expressed in transfected cells; assay: Activation of Kv7.2 (in vitro assay, concentration response curve); assay type: cell-based; conditions: Kv7.2 activation max %
Give Emax for every item shown.
Express it in %; write the number only.

(Q) Input `O=C(NCc1ccnc(OC(F)F)c1)N[C@H]1C[C@H]2CCC[C@H]2C1` , output reported Emax.
(A) 78

(Q) Input O=C(NCc1ccnc(OC(F)F)c1)N[C@@H]1CCC[C@H](C(F)(F)F)C1 (racemic) [Example 138] , output reported Emax.
(A) 40

(Q) Input `COC1(CNC(=O)NCc2ccnc(OC(F)F)c2)CCC1` , output reported Emax.
(A) 73

(Q) Input `O=C(NCc1ccnc(OC(F)F)c1)N[C@H]1C[C@@H]2CC(F)(F)C[C@@H]2C1` , output reported Emax.
(A) 51

(Q) Input O=C(NCc1ccnc(OC(F)F)c1)N[C@@H]1[C@H]2CCC(F)(F)[C@H]21 (racemic) [Example 172] , output reported Emax.
(A) 66

(Q) Input O=C(Nc1cccc(Cl)c1)NC(CO)c1ccnc(OCC(F)F)c1 (stereo not drawn) , output reported Emax.
(A) 63

(Q) Input `O=C(NCc1ccnc(OC(F)F)c1)NCC1CCC1` , output reported Emax.
(A) 56

(Q) Input `COc1cccc(NC(=O)NCc2ccnc(OC(F)F)c2)c1` , output reported Emax.
(A) 45

(Q) Input `O=C(NCc1ccnc(OC(F)F)c1)NC1(C23CC(C2)C3)CC1` , output reported Emax.
(A) 60

(Q) Input `O=C(NCc1ccnc(OC(F)F)c1)N[C@H]1CC[C@@H](C(F)(F)F)C1` , output reported Emax.
(A) 48

(Q) Input `O=C(NCc1ccnc(OC(F)F)c1)N[C@H]1CC[C@H](OC(F)F)CC1` , output reported Emax.
(A) 49

(Q) Input `O=C(NCc1ccnc(-n2cccn2)c1)NC1CCCC1` , output reported Emax.
(A) 74

(Q) Input O=C(NCc1ccnc(Br)c1)N[C@H]1C[C@@H]2CC[C@H]1C2 (racemic) , output reported Emax.
(A) 76

(Q) Input `O=C(NCc1ccnc(OC(F)F)c1)N[C@H]1CC[C@@H](C(F)(F)F)CC1` , output reported Emax.
(A) 61

(Q) Input `O=C(NCc1ccnc(OC(F)F)c1)N[C@H]1C[C@@H]2[C@H](C1)C2(F)F` , output reported Emax.
(A) 74

(Q) Input `O=C(NCc1ccnc(OC(F)F)c1)NCC1CCCC1` , output reported Emax.
(A) 64

(Q) Input O=C(NCc1ccnc(OC(F)F)c1)NC1CC(OC(F)(F)F)C1 (stereo not drawn) , output reported Emax.
(A) 51

(Q) Input Cc1cc(NC(=O)NC(CO)c2ccnc(OCC(F)(F)F)c2)ccc1F (stereo not drawn) , output reported Emax.
(A) 64

Measured values drawn from patent US20250074901A1 for this set.
